Tested on: SF-295 CNS
Procedure Details: NCI-60 one-dose screen, 48 h
Condition Context: 10 µM unless noted
Compounds without any hit were thinned out: in the full panel of roughly 83,000, 20% have a hit. Activity calls are given as the source filed them. The calls were made as follows: active = growth percent below 10; inactive = the rest.
One label from this list, please: active, inactive

// below: answered compounds
Cn1cc(-c2csc(-c3cn(C)c4ncccc34)n2)c2cc(Br)cnc21 : inactive
Cc1nc2cc(NC(=O)CN3CCN(CCN4C(=O)c5cccc6cccc(c56)C4=O)CC3)ccc2s1 : inactive
O=C(Nc1ccc(Cl)cc1Cl)Nc1ccc(-c2cccnc2)cc1N1CCC(CO)CC1 : inactive

Query compound follows.
(Q) Any idea what this test logged for CSc1ccc2c(c1)N(CCC1CCCCN1C)c1ccccc1S2 (stereo not given) ?
(A) inactive

* * *

System: SF-295 CNS
Procedure Details: NCI-60 one-dose screen, 48 h (100 = growth as untreated, 0 = no growth, -100 = all killed)
Condition Context: 10 µM unless noted
Compounds without any hit were thinned out: in the full panel of roughly 83,000, 20% have a hit.
Give measured growth for each item. Keep answers brief.
Answers are plain numbers, in %.

O=C1C[C@@H]2/C(=C(O)\C=C\c3ccccc3)C(=O)C=C[C@@H]2O1 : 71.2
O=C1OCC/C1=C\OCCCO/C=C1\CCOC1=O : 106
O=C(c1ccccc1)c1ccccc1Cl : 110
C=CCCCCCCCCC(=O)[O][Sn]([CH2]CCC)([CH2]CCC)[CH2]CCC : -85.4
CCN(CC)CCNc1ccc(Cl)cc1Cl : 109

I would be grateful if you could provide growth for each of the following entries.
1. CC(c1cc(Cl)ccc1O)c1cc(Cl)ccc1O
2. CCOC(=O)c1ccccc1OC(=O)NNc1ccccc1
3. O=C(Nc1ccc(Cl)cc1)c1cc2c(cc1O)[nH]c1ccccc12

(A)
1: 45.9; 2: 49.1; 3: -43

State the recorded growth for every item in the following list.
1. CC(C)(C)c1ccc(C(O)CCCN2CCC(C(O)(c3ccccc3)c3ccccc3)CC2)cc1 (stereo unspecified)
2. COc1ccc(/C=N\Nc2ccc([N+](=O)[O-])cn2)cc1OC
3. O=C1C(Cl)=C(N=Nc2c(Cl)c(O)c3ccccc3c2O)C(=O)c2ccccc21

(A)
[-69.7, 35.4, 33.2]

* * *

Test system: SNB-75 CNS
Procedure Details: NCI-60 one-dose screen, 48 h (100 = growth as untreated, 0 = no growth, -100 = all killed)
Condition Context: 10 µM unless noted
This is part of a sample that, as a whole, favours compounds with a hit. Of some 83,000 tested, about 20% had one in any assay.
Decision: growth beneath 60% gives 1.0; growth meeting or exceeding 60% gives 0.0.

(Q) In the record for Cc1cc(C)c2c(c1)N1OC(C2)C[C@H]1/C=C/c1ccccc1 (stereo not given in full) , is growth less than 60%?
(A) 0.0

(Q) growth under 60%? Item: Cc1nn(-c2ccccc2)c2ncc3c(c12)C(=O)N(Cc1ccccc1)C3=O
(A) 1.0

(Q) Does the reported growth of the following compound sit strictly below 60%? Cc1nc2cc(NC(=O)CN3CCN(CCN4C(=O)c5cccc6cccc(c56)C4=O)CC3)ccc2s1
(A) 1.0

(Q) Answer whether the compound COc1ccccc1[C@H]1c2[nH]c3ccccc3c2C[C@H]2C(=O)N(CCCCCCC(=O)NO)CC(=O)N12 has growth strictly less than 60%
(A) 1.0

(Q) hey, is growth for O=C(O)C(=O)O lower than 60% or not?
(A) 0.0

* * *

Tested on: T-47D breast
Procedure Details: NCI-60 one-dose screen, 48 h (100 = growth as untreated, 0 = no growth, -100 = all killed)
Condition Context: 10 µM unless noted
Compounds without any hit were thinned out: in the full panel of roughly 83,000, 20% have a hit.
# binarize growth: threshold 90% inclusive, high side MET, low side NOT MET

Below are worked cases with known answers.
CSc1nc2c(c(=O)n1C)C(c1ccccc1)C1=C(N2)/C(=C/c2ccccc2)CCC1 (stereo unspecified) : NOT MET
O=C(Nc1ccc(Cl)cc1)Nc1ccc(Oc2nncc3ccccc23)cc1 : NOT MET
Cc1ccsc1/C=C/C1=NCCCN1C : MET

Next, consider the following molecule.
(Q) Is the recorded value of growth equal to or greater than 90% for this molecule? S=C1SCN(Cc2ccccc2)CN1Cc1ccco1
(A) NOT MET

* * *

Test system: PC-3 prostate
Procedure Details: NCI-60 one-dose screen, 48 h (100 = growth as untreated, 0 = no growth, -100 = all killed)
Condition Context: 10 µM unless noted
This is part of a sample that, as a whole, favours compounds with a hit. Of some 83,000 tested, about 20% had one in any assay.
Observation Type: growth (%)
Answers are plain numbers, in %.

Known results for compounds:
O=C(COC(=O)[C@H](C[Se][Se]C[C@H](NC(=O)c1ccc(Br)cc1F)C(=O)OCC(=O)c1ccc(F)cc1)NC(=O)c1ccc(Br)cc1F)c1ccc(F)cc1 : -51.6
Cc1cc2c(C#N)n3c(c2cc1C)C(=O)C(c1ccccc1)Oc1ccccc1-3 (stereo not given) : 28.3
COc1cc(C2CC(=O)Nc3c2cc(Br)c2ccccc32)cc(Br)c1OC (stereo not given) : 39

Below is a list of compounds. For each, state its recorded growth.
1. NC(=O)SCC(=O)Nc1ccccc1-c1ccccc1
2. CN1CCN(Cc2ccc(NC(=O)c3[nH]ncc3Nc3ccnc4ccnn34)cc2)CC1

(A)
[90.2, 55.9]

* * *

Tested on: U251 CNS
Procedure Details: NCI-60 one-dose screen, 48 h (100 = growth as untreated, 0 = no growth, -100 = all killed)
Condition Context: 10 µM unless noted
The panel holds about 83,000 compounds, 20% with a hit somewhere; the sample as a whole holds those more often.
So basically, if growth comes in under 60% it's yes (1), and if it's 60% or more it's no (0).

(Q) Hello, I'm reviewing records and need to know if growth of COC1=CC(c2ccc[nH]2)=N/C1=C\c1[nH]c(C)c(C(=O)CCC(=O)Oc2ccc3c(c2)CCC2C3CC[C@]3(C)C(=O)CC[C@@H]23)c1C (some centres undefined) is below 60%. Could you check?
(A) yes (1)

(Q) Is it true that growth reported for Cc1ccc(C(=O)Nc2ccc(Cl)cc2C(=O)NCc2ccccc2)cc1 is less than 60%?
(A) no (0)

(Q) Lab note: confirm whether the reported growth for this molecule is below 60%, equality not counting. molecule: O=C(C(=O)N1CCCCC1)c1ccc(OC2OC(CO)C(O)C(O)C2O)cc1 (centres undefined)
(A) no (0)

* * *

For each record, write down the corresponding growth.
System: UACC-257 melanoma
Procedure Details: NCI-60 one-dose screen, 48 h (100 = growth as untreated, 0 = no growth, -100 = all killed)
Condition Context: 10 µM unless noted
This is part of a sample that, as a whole, favours compounds with a hit. Of some 83,000 tested, about 20% had one in any assay.
Give bare numbers, in %.

CCOc1cccc(C2CC(=O)Nc3cc4c(cc32)OCO4)c1 (stereo not drawn) : 94.5

State the recorded growth for every item in the following list.
1. CCC[C@H](N[C@@H](C)C(=O)N1[C@H](C(=O)O)C[C@@H]2CCCC[C@@H]21)C(=O)OCC
2. CCN1C2=C(SC(=S)C1=C1SC(C(=O)OC)=C(C(=O)OC)S1)SC(=Nc1ccc(OC)cc1)C2=O
3. CCN1C[C@@H](C)n2c(c(O)c3c(=O)n(Cc4ccc(F)c(Cl)c4)nc(C(=O)NC)c32)C1=O
4. Cc1ccc(NC(=O)CSc2nnc3n(Cc4ccccc4)c(=O)c4c(C)c(C(N)=O)sc4n23)cc1

(A)
97.9
-55.1
3.7
56.4

* * *

System: OVCAR-3 ovarian
Procedure Details: NCI-60 one-dose screen, 48 h
Condition Context: 10 µM unless noted
About 83,000 compounds went through this panel and 20% of them were active in at least one assay; those are over-represented in the sample as a whole. Active and inactive are the calls of the source. Rule for the calls: active = growth percent below 10; inactive = the rest.
Choose the fitting class; nothing outside Y for active, N for inactive is accepted.

Worked examples follow.
Cc1cc2c(cc1C)Nc1sc(NC(=O)CN3CCN(C)CC3)nc1C(=O)N2 : N
O=C(Nc1ccc(Cl)cc1)Nc1ccc(Oc2nncc3ccccc23)cc1 : Y
COc1ccc(-n2nc3c(c2-c2ccc(OC)c(OC)c2)-c2oncc2CC3)cc1 : N

Consider now this further molecule.
(Q) Kindly provide the recorded test outcome for the following molecule: Cc1nn(-c2ccccc2)c2nc3c(nc12)C(=O)CCC3
(A) N

* * *

Test system: RPMI-8226 leukemia
Procedure Details: NCI-60 one-dose screen, 48 h (100 = growth as untreated, 0 = no growth, -100 = all killed)
Condition Context: 10 µM unless noted
This is part of a sample that, as a whole, favours compounds with a hit. Of some 83,000 tested, about 20% had one in any assay.
Observation Type: growth (%)
Give bare numbers, in %.

Use these answered entries as a reference point.
COC(=O)CC1=C(C)/C(=C/c2[nH]c(-c3ccc[nH]3)cc2OC)N=C1C : -55.3
COc1ccc(/C=N/NC(=O)c2ccc(S(C)(=O)=O)cc2)cc1OC : 97.1
COc1ccccc1[C@H]1c2[nH]c3ccccc3c2C[C@H]2C(=O)N(CCCCCCC(=O)NO)CC(=O)N12 : -1.71

List the reported growth of each compound below.
1. C/C(=N/N=C(N)N)c1ccc(N)cc1
2. COc1ccc2nc(-c3ccc(-n4cncc4-c4ccc(OC)c(N)c4)cc3)sc2c1
3. Cc1cc(C)n2nc(SCC(=O)Nc3sc4c(c3C(N)=O)CCC4)nc2n1
4. COc1ccc(C2=NN(C(=O)c3cc(OC)c(OC)c(OC)c3)C(c3ccc(C#N)cc3)C2)cc1OC (stereo unspecified)
5. Cn1[nH]cc(/C=N/C(N)=O)c1=O
6. CC(=O)NCCSC(=O)C(=O)SCCNC(C)=O

(A)
1: 190; 2: 88.2; 3: 148; 4: 60.8; 5: 105; 6: 102

Dear reader, for each entry below, please note its growth.
1. COc1cc2c(cc1OCCCCCn1c(-c3ccc(OCc4ccccc4)cc3)nc3cc(N4CCOCC4)ccc31)N=C[C@@H]1CCCN1C2=O
2. c1cncc(CNc2ccccc2-c2nnc(Nc3ccc4c(c3)OCO4)o2)c1

(A)
19.4
27.5
